Every entry's value here was drawn from patent US20260091020A1.

Assay: Plasma PK of ANEB-001 and THC, 50 and 100 mg oral Compound 1 with THC (Example 2)
Type: in vivo, human
Settings: human, in vivo, 10 mg THC + 50 mg ANEB-001; read-out: THC plasma Cmax, Mean
Reported endpoint: Cmax
Field: value (include unit after the number)

Challenge: Any idea what Cmax was measured for CCCCCc1cc(O)c2c(c1)OC(C)(C)[C@@H]1CCC(C)=C[C@@H]21 [THC, Δ9-tetrahydrocannabinol] ?
Response given: 3.4 ng/mL

---

Test: Plasma PK of ANEB-001 and THC, 50 and 100 mg oral Compound 1 with THC (Example 2)
Type: in vivo, human
Conditions: human, in vivo, 10 mg THC + 100 mg ANEB-001; read-out: THC plasma Cmax, Mean
Reported endpoint: Cmax

Challenge: # lookup: Cmax of CCCCCc1cc(O)c2c(c1)OC(C)(C)[C@@H]1CCC(C)=C[C@@H]21 [THC, Δ9-tetrahydrocannabinol]
Response given: 3.77 ng/mL
